# MEASUREMENT_SETUP: oral administration in mice, in words
RESULT_TYPE: Oral absorption compared with the control agent nitazoxanide (NTZ)

>>> reported_result("CN(C)C(=O)Oc1ccccc1C(=O)Nc1ncc([N+](=O)[O-])s1 [Compound 6]")
"much better"
>>> reported_result("O=C(Nc1ncc([N+](=O)[O-])s1)c1ccccc1OC(=O)N1CCCCC1 [Compound 3]")
"much better"
>>> reported_result("CCOC(=O)C1CCN(C(=O)Oc2ccccc2C(=O)Nc2ncc([N+](=O)[O-])s2)CC1 [Compound 5]")
"faster"
>>> reported_result("O=C(Nc1ncc([N+](=O)[O-])s1)c1ccccc1OC(=O)N1CCOCC1 [Compound 1]")
"much better"
>>> reported_result("CN1CCN(C(=O)Oc2ccccc2C(=O)Nc2ncc([N+](=O)[O-])s2)CC1 [Compound 2]")
"faster"
>>> reported_result("O=C(Nc1ncc([N+](=O)[O-])s1)c1ccccc1OC(=O)N1CCCC1 [Compound 4]")
"much better"
